Entries and their measured binding relative to negative control mIgG2 follow.
- system_tested: C3b (human, UniProt P01024 23-667; P01024 749-1663)
- Sequence (P01024 23-667 limits assumed, chain 1 of 2): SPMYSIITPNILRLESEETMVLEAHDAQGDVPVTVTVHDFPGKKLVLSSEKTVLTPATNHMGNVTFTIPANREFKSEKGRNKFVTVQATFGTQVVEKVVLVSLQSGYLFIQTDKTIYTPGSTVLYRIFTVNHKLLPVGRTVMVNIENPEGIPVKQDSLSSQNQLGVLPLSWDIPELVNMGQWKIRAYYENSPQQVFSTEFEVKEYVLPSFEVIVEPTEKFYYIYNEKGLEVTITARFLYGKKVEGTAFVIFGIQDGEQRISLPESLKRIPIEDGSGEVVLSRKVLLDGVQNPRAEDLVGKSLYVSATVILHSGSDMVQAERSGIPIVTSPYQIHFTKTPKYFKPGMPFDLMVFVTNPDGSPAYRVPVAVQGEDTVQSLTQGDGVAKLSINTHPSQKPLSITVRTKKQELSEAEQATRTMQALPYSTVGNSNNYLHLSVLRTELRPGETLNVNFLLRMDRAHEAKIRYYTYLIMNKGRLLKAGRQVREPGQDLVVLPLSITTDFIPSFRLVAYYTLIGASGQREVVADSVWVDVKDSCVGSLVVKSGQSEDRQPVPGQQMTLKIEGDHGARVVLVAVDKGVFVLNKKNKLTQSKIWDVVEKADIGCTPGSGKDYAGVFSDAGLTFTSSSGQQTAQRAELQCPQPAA
- Sequence (P01024 749-1663 limits assumed, chain 2 of 2): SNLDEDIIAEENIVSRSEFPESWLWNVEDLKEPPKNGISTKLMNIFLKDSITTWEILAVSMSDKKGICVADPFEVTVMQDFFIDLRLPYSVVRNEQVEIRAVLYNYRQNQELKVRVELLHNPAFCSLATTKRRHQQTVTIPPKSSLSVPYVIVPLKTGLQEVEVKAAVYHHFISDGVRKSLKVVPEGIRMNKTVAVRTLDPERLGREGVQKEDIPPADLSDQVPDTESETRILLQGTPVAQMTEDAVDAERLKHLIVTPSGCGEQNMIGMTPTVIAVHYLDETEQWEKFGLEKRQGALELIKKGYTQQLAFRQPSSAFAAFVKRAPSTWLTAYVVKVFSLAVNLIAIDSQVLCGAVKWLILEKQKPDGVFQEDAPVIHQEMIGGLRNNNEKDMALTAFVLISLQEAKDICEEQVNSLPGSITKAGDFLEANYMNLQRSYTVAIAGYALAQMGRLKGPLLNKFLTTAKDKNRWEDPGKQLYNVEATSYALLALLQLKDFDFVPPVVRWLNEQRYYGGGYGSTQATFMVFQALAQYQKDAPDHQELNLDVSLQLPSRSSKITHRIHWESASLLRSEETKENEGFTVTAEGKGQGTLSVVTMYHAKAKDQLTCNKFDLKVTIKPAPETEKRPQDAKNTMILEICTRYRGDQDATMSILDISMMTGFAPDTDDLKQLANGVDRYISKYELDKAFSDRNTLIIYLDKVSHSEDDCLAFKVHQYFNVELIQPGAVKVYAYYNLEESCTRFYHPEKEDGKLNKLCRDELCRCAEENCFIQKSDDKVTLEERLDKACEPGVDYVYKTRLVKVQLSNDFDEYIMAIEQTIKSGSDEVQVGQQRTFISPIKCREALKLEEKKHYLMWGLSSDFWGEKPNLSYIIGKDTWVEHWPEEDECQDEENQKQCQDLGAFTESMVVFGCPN
- assay_remarks: binding screen of Example 5; method and unit not stated
Note: the reply should be a number with no unit written.

binder="antibody 63A3 (antibody, V domains shown, Mouse hybridoma antibody) VH: DVQLQESGPGLVKPSQSLSLTCSVTGYSITSGYYWNWIRQFPGNKLEWMGYIRYDGSNNYNPSLKNRISITRDTSKNQVFLKLNSVTPEDTATYYCARHYGYDGGAFDFWGQGTTLTVSS VL: DIQMTQSPASLSASVGETVTITCRTSENIYNYLVWYQQKQGKSPQLLVYNAKTLEEGVPSRFSGSGSGTQFSLKVNSLQPEDFGSYYCQHHYGTPFTFGSGTKLEIK" experimental_result=0.83
binder="antibody 3D8 (antibody, V domains shown, Mouse hybridoma antibody raised against human C3) VH: EIQLQQSGAELVKPGASVKISCKASGYSFTGYNMNWVKQSHGKSLEWIGNINPYYGSTNYNQKFKGKATLTVDKSSTTAYMQLDSLTSEDSAVYYCARGYYGGNYPFAYWGQGTLVTVSA VL: DIQMTQSPASLSASVGETVTITCRASENIYSYLAWYQQKQGKSPQLLVYNAKTLAEGVPSRFSGSGSGTQFSLKINSLQPEDFGSYYCQHYYGTPYTFGGGSKVEIK" experimental_result=0.38
binder="antibody 3G8 (antibody, V domains shown, Mouse hybridoma antibody) VH: EIQLQQSGAELVKPGASVKISCMASGYSFTGYNMNWVKQSHGKGLEWIGNINPYYDSTSYNQKFKGKATLTVDKSSSTAYMQLNSLTSEDSAVYYCARENYDFVGFAYWGQGTLVTVSA VL: QIVLSQSPAILSASPGEKVTMTCRASSSVSYMHWFQQKPGSSPKPWIYVTSNLASGVPPRFSGSGSGTSYSLTISRVEAEDAATYYCQQWSTNPLTFGAGTKLELK" experimental_result=0.33

Q) Can you look up the measured binding relative to negative control mIgG2 of antibody 28C3 (antibody, V domains shown, Mouse hybridoma antibody) VH: QVQLQQSGPELVKPGASVKISCKASGYAFNSCWMNWVKQRPGKGLEWIGRIYPGDGDTNYNGKFKGKATLTADKSSTTAYMQLSSLTSEDSAVYFCAREGRNYGYEDYWGQGTTLTVSS VL: DIVLTQSPASLAVSLGQRATISCKASQSVDYDGDSYMNWYQQKPGQPPKLLIYAASDLESGIPARFSGSGSGTDFTLNIHPVEEEDAATYYCQQANEDPRTFGGGTKLEIK for me?
A) 0.09
